Exercise: for every item that follows, state its recorded pIC50.
Biological target: Androgen receptor (Homo sapiens)
Sequence (P10275 whole entry): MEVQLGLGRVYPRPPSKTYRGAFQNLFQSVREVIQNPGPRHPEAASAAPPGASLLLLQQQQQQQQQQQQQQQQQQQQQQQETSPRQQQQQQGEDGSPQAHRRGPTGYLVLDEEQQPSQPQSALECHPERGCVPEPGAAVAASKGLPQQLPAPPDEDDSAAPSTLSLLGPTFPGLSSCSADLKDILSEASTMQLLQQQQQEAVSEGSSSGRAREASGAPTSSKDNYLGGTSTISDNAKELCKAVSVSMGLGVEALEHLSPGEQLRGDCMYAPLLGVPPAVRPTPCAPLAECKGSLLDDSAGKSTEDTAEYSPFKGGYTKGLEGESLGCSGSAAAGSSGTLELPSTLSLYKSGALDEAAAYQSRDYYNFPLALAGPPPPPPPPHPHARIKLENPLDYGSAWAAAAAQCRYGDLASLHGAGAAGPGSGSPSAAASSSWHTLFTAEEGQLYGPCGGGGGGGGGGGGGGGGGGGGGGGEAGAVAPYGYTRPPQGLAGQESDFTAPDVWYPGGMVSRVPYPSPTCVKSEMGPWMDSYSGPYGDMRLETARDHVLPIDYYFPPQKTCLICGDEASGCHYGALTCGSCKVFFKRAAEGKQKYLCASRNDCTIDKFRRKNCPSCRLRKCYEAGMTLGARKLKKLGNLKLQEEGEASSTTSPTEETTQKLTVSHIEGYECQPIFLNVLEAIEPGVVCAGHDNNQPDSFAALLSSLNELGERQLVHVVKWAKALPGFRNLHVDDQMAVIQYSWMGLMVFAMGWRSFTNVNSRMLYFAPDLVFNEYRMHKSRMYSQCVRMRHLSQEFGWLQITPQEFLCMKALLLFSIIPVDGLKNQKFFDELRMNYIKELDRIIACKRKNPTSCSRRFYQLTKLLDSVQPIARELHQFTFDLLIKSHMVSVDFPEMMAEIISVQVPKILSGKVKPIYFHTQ
Test: Displacement of [3H]mibolerone from human AR expressed in CHO-K1 cells after 2 hrs by scintillation counting
pIC50: −log10 of the molar value.

In: Please report the recorded pIC50 for CC1(C)C(=O)N(c2ccc(C#N)c(C(F)(F)F)c2)C(=S)N1CCCNS(N)(=O)=O .
Out: < 6.00

In: Please report the recorded pIC50 for CC1(C)C(=O)N(c2ccc(C#N)c(C(F)(F)F)c2)C(=S)N1CCCc1nnn[nH]1 .
Out: < 6.00

In: Please report the recorded pIC50 for Cc1cc(N2C(=O)C(C)(C)N(CCCS(N)(=O)=O)C2=S)ccc1C#N .
Out: < 6.00
